Quick reference for inhibition at 1 µM among some compounds
Target: FLT3 (Homo sapiens, UniProt P36888)
Construct: purchased Invitrogen (SelectScreen platform)
Sequence (P36888 27-993): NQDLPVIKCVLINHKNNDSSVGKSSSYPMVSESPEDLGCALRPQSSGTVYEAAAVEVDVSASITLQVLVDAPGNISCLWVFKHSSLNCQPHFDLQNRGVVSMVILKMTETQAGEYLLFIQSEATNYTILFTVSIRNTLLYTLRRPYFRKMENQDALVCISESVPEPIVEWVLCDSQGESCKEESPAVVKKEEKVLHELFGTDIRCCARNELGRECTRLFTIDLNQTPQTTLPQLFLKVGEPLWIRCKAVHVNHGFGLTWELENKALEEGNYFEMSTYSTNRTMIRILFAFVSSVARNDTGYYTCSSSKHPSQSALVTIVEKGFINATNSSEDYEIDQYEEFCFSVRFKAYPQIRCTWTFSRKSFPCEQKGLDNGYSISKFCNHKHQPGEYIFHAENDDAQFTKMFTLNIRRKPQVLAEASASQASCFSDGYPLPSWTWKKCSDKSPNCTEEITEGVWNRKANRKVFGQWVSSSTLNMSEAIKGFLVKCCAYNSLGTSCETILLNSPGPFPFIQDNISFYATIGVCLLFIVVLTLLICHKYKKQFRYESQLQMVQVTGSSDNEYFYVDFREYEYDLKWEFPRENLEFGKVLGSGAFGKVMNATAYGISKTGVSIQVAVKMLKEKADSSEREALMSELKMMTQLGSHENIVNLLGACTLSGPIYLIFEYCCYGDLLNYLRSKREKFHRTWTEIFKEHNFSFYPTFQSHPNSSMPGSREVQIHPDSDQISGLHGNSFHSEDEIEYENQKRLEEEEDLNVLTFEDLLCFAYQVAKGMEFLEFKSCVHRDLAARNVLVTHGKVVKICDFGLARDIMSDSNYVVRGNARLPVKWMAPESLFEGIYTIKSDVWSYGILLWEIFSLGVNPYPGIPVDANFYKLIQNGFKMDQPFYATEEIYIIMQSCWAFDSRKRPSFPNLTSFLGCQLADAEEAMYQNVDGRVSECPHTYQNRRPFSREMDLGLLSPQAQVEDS
Assay: SelectScreen FLT3 kinase dose response assay
Type: biochemical
Details: 1000 nMolar compound; ATP 100 micromolar; read-out: FLT3 Inhibition E1000 (percent inhibition at 1000 nMolar)
readout_label: inhibition at 1 µM (%)

compound | readout_label | units_symbol | reading
CN(C)CCNc1ccc2ncn3c4ccc5[nH]ncc5c4c(=O)c1c23 | inhibition at 1 µM | % | 98
CN(C)CCCCCNc1ccc2ncn3c4ccc5[nH]ncc5c4c(=O)c1c23 | inhibition at 1 µM | % | 100
CN(C)CCCNc1ccc2ncn3c4ccc5[nH]ncc5c4c(=O)c1c23 | inhibition at 1 µM | % | 98
CC(CCN1CCOCC1)Nc1ccc2ncn3c4ccc5[nH]ncc5c4c(=O)c1c23 (centres unmarked) | inhibition at 1 µM | % | 99
CN(C)c1ccc2ncn3c4ccc5[nH]ncc5c4c(=O)c1c23 | inhibition at 1 µM | % | 98
CCN(CC)CCNc1ccc2ncn3c4ccc(O)cc4c(=O)c1c23 [Symadex, reference compound] | inhibition at 1 µM | % | 96
O=c1c2c(NCCCN3CCOCC3)ccc3ncn(c4ccc5[nH]ncc5c14)c32 | inhibition at 1 µM | % | 98
CCN(CC)CCNc1ccc2ncn3c4ccc5[nH]ncc5c4c(=O)c1c23 | inhibition at 1 µM | % | 87
CCN(CC)c1ccc2ncn3c4ccc5[nH]ncc5c4c(=O)c1c23 | inhibition at 1 µM | % | 100
O=c1c2c(F)ccc3ncn(c4ccc5[nH]ncc5c14)c32 | inhibition at 1 µM | % | 47
CN1CCN(CCCNc2ccc3ncn4c5ccc6[nH]ncc6c5c(=O)c2c34)CC1 | inhibition at 1 µM | % | 99
CNc1ccc2ncn3c4ccc5[nH]ncc5c4c(=O)c1c23 | inhibition at 1 µM | % | 99
O=c1c2c(NCCN3CCOCC3)ccc3ncn(c4ccc5[nH]ncc5c14)c32 | inhibition at 1 µM | % | 95
CCN(CC)CCCNc1ccc2ncn3c4ccc5[nH]ncc5c4c(=O)c1c23 | inhibition at 1 µM | % | 99

Values compiled from patent US20100292231A1.
